Recorded values, source PubChem BioAssay AID1159580.

Exercise: for every item that follows, state its recorded normalized growth.
Assay: chemical genetic growth profiling, strain panel (AID 1159580);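 note: tested at 20 µM; growth read once vehicle control cultures reached saturation at 30 °C; 1 = growth at the plate median or of vehicle wells; lower values mean less growth of the strain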
Conditions: S. cerevisiae deletion strains, growth OD, locus YMR125W, strain sto1, hits give low values
About 2,000 (36%) of roughly 5,500 compounds were called active. Not shown: some 18% with an inconclusive outcome. The list shows a part of the results.
Just the number, please, no unit after it.

Please look at this molecule and report its normalized growth: C[C@@H]1CC[C@H]2[C@@H](C)C(=O)O[C@@H]3O[C@@]4(C)CC[C@@H]1[C@]32OO4
0.925

Complete the entry with normalized growth for CCOP(=S)(OCC)Oc1nc(Cl)c(Cl)cc1Cl
0.97

Given CC(CC(=O)C1OC1(C)C)C1C(=O)CC2(C)C3=CCC4C(C)(C)C(OC5OCC(O)C(O)C5O)CCC45CC35C(O)CC12C (stereo unspecified) , respond with its normalized growth.
1.03

// Input: CC1(C)CC[C@@]2(C(=O)O)C(C1)C1=CCC3[C@@]4(C)CC[C@H](O)C(C)(C)C4CC[C@@]3(C)[C@]1(C)C[C@@H]2O (stereo partly specified) . Output its normalized growth only.
1.03

Assign normalized growth to the following record: COc1ccc2[nH]cc(CCN)c2c1
0.992

Tell me measured normalized growth for CCCOc1ccccc1-c1nc2n[nH]nc2c(=O)[nH]1 please.
1.01

Write down normalized growth measured for item CC1(C)CCC2(C(=O)O)CCC3(C)C(=CCC4C5(C)CCC(O)C(C)(C)C5C(O)CC43C)C2C1 (stereo unspecified)
1.03

Quick one: give measured normalized growth for COC1=C[C@@H]2[C@@H]3Cc4ccc(OC)c(O)c4[C@]2(CCN3C)CC1=O
0.975

Return the recorded normalized growth value; entry: CCOC(=O)OC(C)OC(=O)C1N2C(=O)C(NC(=O)[C@H](N)c3ccccc3)C2SC1(C)C (stereo partly specified)
0.99

Provide only the value of recorded normalized growth for Nc1c2ccccc2nc2ccccc12
0.919

Supply recorded normalized growth for C[C@@H]1CC[C@]2(C(=O)O)CC[C@]3(C)C(=CCC4[C@@]5(C)CC[C@H](O)C(C)(C)C5CC[C@]43C)C2[C@H]1C (stereo partly specified) here.
0.986

Return value of normalized growth for input C[C@]12CCC(=O)C=C1CCC1C2[C@@H](O)C[C@@]2(C)C1CC[C@]2(O)C(=O)CO (stereo partly specified) , no commentary.
0.96

Supply normalized growth value. Item: Cc1cn([C@H]2C[C@H](N=[N+]=[N-])[C@@H](CO)O2)c(=O)[nH]c1=O
0.999

Indicate the recorded normalized growth value for this molecule: O=C(Nc1ccc(C(=O)O)c(O)c1)c1ccccc1
0.984

Please give the documented normalized growth of C/C=C(/C)C(=O)O[C@@H]1[C@H](OC(C)=O)[C@@]2(CO)C(CC1(C)C)C1=CCC3[C@@]4(C)CC[C@H](O[C@@H]5O[C@H](C(=O)O)[C@@H](O[C@@H]6O[C@H](CO)[C@@H](O)[C@H](O)[C@H]6O)[C@H](O)[C@H]5O[C@@H]5O[C@H](CO)[C@@H](O)[C@H](O)[C@H]5O)[C@](C)(CO)C4CC[C@@]3(C)[C@]1(C)C[C@H]2O (stereo partly specified)
0.959

Provide measured normalized growth value, entry: CCC(C)C(=O)O[C@H]1[C@H](O)C2C(CN3CC(C)CCC3[C@@]2(C)O)C2C[C@]34O[C@]5(O)C(OC(=O)C(C)(O)CC)CC[C@@]3(C)C5C(OC(C)=O)[C@@H](OC(C)=O)C4[C@@]21O (stereo partly specified)
1.02

* * *

Assay: chemical genetic growth profiling, strain panel (AID 1159580);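 note: tested at 20 µM; growth read once vehicle control cultures reached saturation at 30 °C; 1 = growth at the plate median or of vehicle wells; lower values mean less growth of the strain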
Details: S. cerevisiae deletion strains, growth OD, locus YNL322C, strain KRE1
Among all 5,500 compounds or so, about 2,000 (36%) were called active. Not shown: some 18% with an inconclusive outcome. No stated cut-off is given here; in the data, active means normalized growth mostly below about 0.91 (no sharp cut-off); inconclusive means no clear call, values can overlap the other calls; inactive means mostly above about 0.92. The list shows a part of the results.
Permitted responses: active, inactive

Lab log entry: S=c1[nH]nc(SCCSc2n[nH]c(=S)s2)s1 — outcome as called in the assay?
inactive

Hi, do you know how Cc1nc(-c2nnc(Sc3ccc(C(F)(F)F)cc3[N+](=O)[O-])n2C)cs1 came out in this test?
inactive

// outcome(item) with item = CC12CCC3C4CCC(=O)C=C4CCC3C1CCC2=O (stereo unspecified)
inactive

For CCNC(=O)C1OC(n2cnc3c(NCc4ccccc4)ncnc32)C(O)C1O (stereo unspecified) , which call appears in the assay record?
inactive

For FC(F)(F)c1cccc(CSc2n[nH]c(=S)s2)c1 , what call appears in the results of this test?
active

# fetch the recorded call for CSC(=CC(=O)c1ccc(Cl)cc1)SC here
active

* * *

Assignment: determine reported normalized growth for the given compounds.
Experiment: chemical genetic growth profiling, strain panel (AID 1159580);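 note: tested at 20 µM; growth read once vehicle control cultures reached saturation at 30 °C; 1 = growth at the plate median or of vehicle wells; lower values mean less growth of the strain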
Conditions: S. cerevisiae deletion strains, growth OD, locus YDL040C, strain nat1, hits give low values
Among all 5,500 compounds or so, about 2,000 (36%) were called active. Not shown: some 18% with an inconclusive outcome. The list shows a part of the results.
Form: value (number only, do not type unit).

Recall and state the measured normalized growth for Clc1ccccc1C(c1ccccc1)(c1ccccc1)n1ccnc1 .
0.058

Quickly give me recorded normalized growth for CC1OC(=O)C(C(C)C)NC(=O)C(C(C)C)OC(=O)C(C(C)C)NC(=O)C(C)OC(=O)C(C(C)C)NC(=O)C(C(C)C)OC(=O)C(C(C)C)NC(=O)C(C)OC(=O)C(C(C)C)NC(=O)C(C(C)C)OC(=O)C(C(C)C)NC1=O (configuration not stated)
0.468

Look up and state reported normalized growth for C/C=C(/C)C(=O)OC1CCC2(C)C3CCC4C5(O)CC(O)C6(O)C(CN7CC(C)CCC7C6(C)O)C5(O)CC42OC13O (configuration not stated)
0.994

Answer with reported normalized growth of Cc1cn([C@H]2C[C@H](N=[N+]=[N-])[C@@H](CO)O2)c(=O)[nH]c1=O
0.994

Determine from records and report normalized growth for COc1cc(C(=O)O[C@H]2CC[C@@]3(C)[C@@H]4CC[C@H]5[C@]6(O)C[C@H](O)[C@@]7(O)[C@@H](CN8C[C@@H](C)CC[C@H]8[C@@]7(C)O)[C@]6(O)C[C@@]53O[C@]24O)cc(OC)c1OC
1

Give a short answer stating reported normalized growth for FC(F)(F)c1ccccc1-n1ccnc1 .
1

Give the value of normalized growth reported for the following: CCOP(=S)(OCC)Oc1nc(Cl)c(Cl)cc1Cl
0.955

* * *

Test: chemical genetic growth profiling, strain panel (AID 1159580);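 note: tested at 20 µM; growth read once vehicle control cultures reached saturation at 30 °C; 1 = growth at the plate median or of vehicle wells; lower values mean less growth of the strain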
Details: S. cerevisiae deletion strains, growth OD, locus YJL129C, strain trk1
The campaign covered roughly 5,500 compounds. About 2,000 (36%) were called active. Not shown: some 18% with an inconclusive outcome. Rule as the data show it: active = normalized growth mostly below about 0.91 (no sharp cut-off); inconclusive = no clear call, values can overlap the other calls; inactive = mostly above about 0.92. Some of the results follow. Where a SMILES comes first, the peptide text is derived from it. Bridges are numbered along the chain shown (N, C = ends). [ ]: non-standard residue; d: D form. The star is where a group is joined. ξ: configuration not given here. ξDab(CH2SO3H) = NC(CCNCS(=O)(=O)O)C(=O)O; Heptanoyl(6-Me) = CC(C)CCCCC(=O)*; Dab = NCC[CH](N)C(=O)O
Choose one outcome from this list and give only that: T = active, F = inactive

Field: outcome | Entry: CC1(C)CC[C@]2(C)CC[C@]3(C)C(=CCC4[C@@]5(C)CC[C@H](O)C(C)(C)C5CC[C@]43C)C2C1 (stereo not given in full)
F

Returns: the outcome recorded for Cc1cc(O)ccc1Cl in this assay.
F

Kindly provide the recorded test outcome for the following molecule: COc1c(-c2coc3cc4c(cc3c2=O)CC(OC(C)=O)C(C)(C)O4)ccc2c1C=CC(C)(C)O2 (stereo not given)
F

Write down the call the test reported for this molecule. Item: COC(=O)Nc1nc2ccc(Sc3ccccc3)cc2[nH]1
F

Any idea what this test logged for Cc1ccc(N=CN(C)C=Nc2ccc(C)cc2C)c(C)c1 ?
F

What call does the record list for COC(=O)Nc1nc2ccc(C(=O)c3ccccc3)cc2[nH]1 ?
F

Hi team, can someone confirm the assay call for NC(Cc1c[nH]c2ccccc12)C(=O)O (stereo not given) ?
F

What was the test verdict on C[C@@H]1C(=O)O[C@H]2[C@H]1CC[C@@]1(C)C=CC(=O)[C@@]3(C)O[C@@]213 ?
F

# lookup: test call for Clc1ccccc1C(c1ccccc1)(c1ccccc1)n1ccnc1
T

How was N=C(N)SCCN classified in this test?
F

Per the assay record, what outcome was assigned to NNc1nncc2ccccc12 ?
F

// return assay outcome for C[C@@H]1CC[C@H]2[C@@H](C)C(O)O[C@@H]3O[C@@]4(C)CC[C@@H]1[C@]32OO4 (stereo not given in full)
T

Hello, I am checking results. What call was entered for Cc1ccnc(NS(=O)(=O)c2ccc(N)cc2)n1 ?
F

# fetch the recorded call for O=C1C(O)=C(O)C(=O)C(O)=C1O here
F

// param item: O=c1[nH]cc(F)c(=O)[nH]1 ; yields the recorded call
T

Fill in: this test's call for Cc1cc(O)cc(=O)o1 is ___
F

Which result was noted for this molecule in the test: Nc1c2c(nc3ccccc13)CCCC2O (stereo not given)
F

What classification did CCC(C)C1NC(=O)C(CCNCS(=O)(=O)O)NC(=O)C(NC(=O)C(CCNCS(=O)(=O)O)NC(=O)C(NC(=O)C(CCNCS(=O)(=O)O)NC(=O)CCCCC(C)C)C(C)O)CCNC(=O)C(C(C)O)NC(=O)C(CCNCS(=O)(=O)O)NC(=O)C(CCNCS(=O)(=O)O)NC(=O)C(C(C)CC)NC1=O (stereo not given) ({Heptanoyl(6-Me)}-[ξDab(CH2SO3H)]T[ξDab(CH2SO3H)][Dab][ξDab(CH2SO3H)]II[ξDab(CH2SO3H)][ξDab(CH2SO3H)]T; lactam 4-C; configuration not given here) end up with in this test?
F

For Cc1cc(O)cc(O)c1C(=O)O , what call appears in the results of this test?
F

For this molecule, state the assay outcome: Cc1cc(C(C)(C)C)c(O)c(C(C)(C)C)c1
F
